# target_desc: UniProt Q9UKP6
# Sequence (Q9UKP6 whole entry): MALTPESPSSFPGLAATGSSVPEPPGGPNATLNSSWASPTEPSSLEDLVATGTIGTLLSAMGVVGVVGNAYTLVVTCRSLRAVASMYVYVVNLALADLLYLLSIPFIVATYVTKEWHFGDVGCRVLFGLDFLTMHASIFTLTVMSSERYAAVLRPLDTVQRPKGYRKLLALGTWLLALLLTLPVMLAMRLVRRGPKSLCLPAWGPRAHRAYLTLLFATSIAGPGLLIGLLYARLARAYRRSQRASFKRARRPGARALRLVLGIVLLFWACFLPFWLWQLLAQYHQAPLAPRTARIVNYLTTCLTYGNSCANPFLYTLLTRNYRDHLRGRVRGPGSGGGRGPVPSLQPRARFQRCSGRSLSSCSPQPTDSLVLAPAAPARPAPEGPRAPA
# test_method_notes: Displacement of [125I]hU-2 from human recombinant Urotensin 2 receptor expressed in HEK293 cells
pKi: −log10 of the molar value.
Short version: pKi at least 9 is T, less is F.

Below are worked cases with known answers.
{"columns": ["compound", "assigned_label"],
 "data": [
  ["CN(CC(=O)N1CCCC(c2ccccc2)C1CN1CCCC1)c1ccc(Cl)c(Cl)c1 (racemic)", "F"],
  ["O=C(Cn1c(=O)cnc2cc(Cl)c(Cl)cc21)N1CCCC(c2ccccc2)C1CN1CCOCC1 (racemic)", "F"],
  ["Cc1cc2c(cc1C)N(CC(=O)N1CCCC(c3ccccc3)C1CN1CCCC1)C(=O)CO2 (racemic)", "T"]
]}

stdin: State whether the measured pKi reaches 9, counting equality as reaching it, for N#CCN(CC(=O)N1CCCC(c2ccccc2)C1CN1CCCC1)c1ccc(Cl)c(Cl)c1 (racemic)
stdout: F

stdin: How about COCCN(CC(=O)N1CCCC(c2ccccc2)C1CN1CCOCC1)c1ccc(Cl)c(Cl)c1 (racemic) ?
stdout: F

stdin: How about O=C1COc2cc(Cl)c(Cl)cc2N1CC(=O)N1CCCC(c2ccccc2)C1CN1CCOCC1 (racemic) ?
stdout: F

* * *

Record: pIC50 reported on Cytochrome P450 2D6 (Homo sapiens).
Sequence (P10635 whole entry): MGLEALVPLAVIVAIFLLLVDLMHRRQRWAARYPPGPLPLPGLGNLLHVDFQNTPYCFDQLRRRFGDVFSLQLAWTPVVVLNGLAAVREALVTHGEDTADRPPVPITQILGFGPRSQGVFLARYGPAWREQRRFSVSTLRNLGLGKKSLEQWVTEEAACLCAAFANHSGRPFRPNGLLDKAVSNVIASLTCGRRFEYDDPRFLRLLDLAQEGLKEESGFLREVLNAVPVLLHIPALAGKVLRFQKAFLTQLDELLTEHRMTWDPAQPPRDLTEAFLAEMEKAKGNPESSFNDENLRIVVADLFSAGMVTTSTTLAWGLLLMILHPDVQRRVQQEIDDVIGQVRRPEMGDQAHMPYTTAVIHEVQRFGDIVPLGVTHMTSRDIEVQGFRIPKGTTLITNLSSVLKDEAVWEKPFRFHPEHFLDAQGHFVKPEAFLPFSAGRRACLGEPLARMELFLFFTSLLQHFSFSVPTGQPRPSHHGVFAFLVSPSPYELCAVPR
Please keep in mind that pIC50 is minus log10 of the molar concentration; only the number is needed.

As a guide, the following entries are already answered.
{"columns": ["molecule", "pIC50"],
 "data": [
  ["COCCN(CC(=O)N1CCCC(c2ccccc2)C1CN1CCOCC1)c1ccc(Cl)c(Cl)c1 (racemic)", 5.49],
  ["Cc1cc2ncc(=O)n(CC(=O)N3CCCC(c4ccccc4)C3CN3CCOCC3)c2cc1C (racemic)", 5.17],
  ["O=C(Cn1c(=O)sc2ccc(Cl)cc21)N1CCCC(c2ccccc2)C1CN1CCOCC1 (racemic)", 5.10]
]}

stdin: Lookup: pIC50 / Cytochrome P450 2D6 (Homo sapiens) / O=C(Cn1c(=O)sc2ccc(Cl)cc21)N1CCCC(c2ccccc2)C1CN1CCCC1 (racemic)
stdout: 5.77

stdin: How about O=C1COc2cc(Cl)c(Cl)cc2N1CC(=O)N1CCCC(c2ccccc2)C1CN1CCOCC1 (racemic) ?
stdout: 5.32

stdin: How about N#CCN(CC(=O)N1CCCC(c2ccccc2)C1CN1CCOCC1)c1ccc(Cl)c(Cl)c1 (racemic) ?
stdout: 5.43

stdin: How about CN(CC(=O)N1CCCC(c2ccccc2)C1CN1CCCC1)c1ccc(Cl)c(Cl)c1 (racemic) ?
stdout: 6.12

stdin: How about Cc1cc2ncc(=O)n(CC(=O)N3CCCC(c4ccccc4)C3CN3CCCC3)c2cc1C (racemic) ?
stdout: 5.08

* * *

Record: IC50 reported on Cytochrome P450 3A4 (Homo sapiens, UniProt P08684).
Sequence (P08684 whole entry): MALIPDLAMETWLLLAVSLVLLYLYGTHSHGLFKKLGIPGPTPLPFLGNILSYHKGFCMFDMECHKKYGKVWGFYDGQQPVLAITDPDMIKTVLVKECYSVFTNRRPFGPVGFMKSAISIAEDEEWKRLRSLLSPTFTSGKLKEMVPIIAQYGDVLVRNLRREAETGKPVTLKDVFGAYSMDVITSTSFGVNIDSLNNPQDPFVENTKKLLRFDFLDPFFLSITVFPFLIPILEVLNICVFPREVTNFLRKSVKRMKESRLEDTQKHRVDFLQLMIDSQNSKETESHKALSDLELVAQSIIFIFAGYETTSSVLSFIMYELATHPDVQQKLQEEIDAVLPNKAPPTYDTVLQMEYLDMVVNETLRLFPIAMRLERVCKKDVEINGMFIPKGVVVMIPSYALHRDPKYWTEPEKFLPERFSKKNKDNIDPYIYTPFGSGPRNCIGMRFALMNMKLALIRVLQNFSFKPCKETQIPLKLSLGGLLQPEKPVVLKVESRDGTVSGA
Write down the value, and be sure its unit follows.

As a guide, the following entries are already answered.
{"columns": ["compound", "value_kind", "result"],
 "data": [
  ["O=C(Cn1c(=O)sc2ccc(Cl)cc21)N1CCCC(c2ccccc2)C1CN1CCCC1 (racemic)", "IC50", "1000 nM"],
  ["O=C(Cn1c(=O)oc2ccc(Cl)cc21)N1CCCC(c2ccccc2)C1CN1CCCC1 (racemic)", "IC50", "2100 nM"],
  ["CN(CC(=O)N1CCCC(c2ccccc2)C1CN1CCCC1)c1ccc(Cl)c(Cl)c1 (racemic)", "IC50", "1400 nM"]
]}

Now for a further compound.
stdin: Fill in: IC50 of O=C1COc2cc(Cl)c(Cl)cc2N1CC(=O)N1CCCC(c2ccccc2)C1CN1CCCC1 (racemic) is ___
stdout: 1800 nM

* * *

# test_method_notes: Half life in rat at 2 mg/kg, iv and 4 mg/kg, po
# Type: ADME, organism-based
# stated_conditions: in vivo
# maps each entry to its half-life
Only the number, expressed in h, is required.

As a guide, the following entries are already answered.
{"columns": ["compound", "numeric_value"],
 "data": [
  ["O=C(Cn1c(=O)sc2ccc(Cl)cc21)N1CCCC(c2ccccc2)C1CN1CCOCC1 (racemic)", 5],
  ["N#CCN(CC(=O)N1CCCC(c2ccccc2)C1CN1CCCC1)c1ccc(Cl)c(Cl)c1 (racemic)", 3.2],
  ["N#CCN(CC(=O)N1CCCC(c2ccccc2)C1CN1CCOCC1)c1ccc(Cl)c(Cl)c1 (racemic)", 2.6],
  ["CN(CC(=O)N1CCCC(c2ccccc2)C1CN1CCCC1)c1ccc(Cl)c(Cl)c1 (racemic)", 3.8]
]}

stdin: Fill in: half-life of COCCN(CC(=O)N1CCCC(c2ccccc2)C1CN1CCCC1)c1ccc(Cl)c(Cl)c1 (stereo not given) is ___
stdout: 2.8

* * *

# maps each entry to its pKi
# test_method_notes: Binding affinity at batrachotoxinin sensitive Sodium channel in rat brain
# Format: tissue-based
Please keep in mind that pKi is minus log10 of the molar concentration; only the number is needed.

As a guide, the following entries are already answered.
{"columns": ["compound", "value_kind", "numeric_value"],
 "data": [
  ["Cc1cc2ncc(=O)n(CC(=O)N3CCCC(c4ccccc4)C3CN3CCOCC3)c2cc1C (racemic)", "pKi", 5.16],
  ["Cc1cc2ncc(=O)n(CC(=O)N3CCCC(c4ccccc4)C3CN3CCCC3)c2cc1C (racemic)", "pKi", 5.85],
  ["N#CCN(CC(=O)N1CCCC(c2ccccc2)C1CN1CCCC1)c1ccc(Cl)c(Cl)c1 (racemic)", "pKi", 5.80]
]}

stdin: Fill in: pKi of O=C(Cn1c(=O)cnc2cc(Cl)c(Cl)cc21)N1CCCC(c2ccccc2)C1CN1CCCC1 (racemic) is ___
stdout: 6.03

* * *

# maps each entry to its EC50
# target_desc: Kappa-type opioid receptor (Homo sapiens, UniProt P41145)
# Sequence (P41145 whole entry): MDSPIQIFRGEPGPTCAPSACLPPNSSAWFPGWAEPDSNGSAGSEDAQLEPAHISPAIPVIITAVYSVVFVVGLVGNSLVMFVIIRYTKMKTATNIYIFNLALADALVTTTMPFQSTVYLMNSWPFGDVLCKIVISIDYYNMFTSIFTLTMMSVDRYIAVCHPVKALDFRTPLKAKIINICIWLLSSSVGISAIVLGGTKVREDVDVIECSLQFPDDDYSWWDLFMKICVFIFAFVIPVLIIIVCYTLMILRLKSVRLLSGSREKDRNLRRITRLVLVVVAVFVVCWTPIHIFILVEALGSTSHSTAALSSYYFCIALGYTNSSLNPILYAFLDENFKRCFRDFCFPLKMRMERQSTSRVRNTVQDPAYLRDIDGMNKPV
# test_method_notes: Agonist activity at kappa opioid receptor

As a guide, the following entries are already answered.
{"columns": ["molecule", "target_desc", "EC50"],
 "data": [
  ["O=C(Cn1c(=O)oc2ccc(Cl)cc21)N1CCCC(c2ccccc2)C1CN1CCCC1 (racemic)", "Kappa-type opioid receptor (Homo sapiens, UniProt P41145)", "5 µM"],
  ["COCCN(CC(=O)N1CCCC(c2ccccc2)C1CN1CCCC1)c1ccc(Cl)c(Cl)c1 (centres undefined)", "Kappa-type opioid receptor (Homo sapiens, UniProt P41145)", "1 µM"],
  ["Cc1cc2ncc(=O)n(CC(=O)N3CCCC(c4ccccc4)C3CN3CCCC3)c2cc1C (racemic)", "Kappa-type opioid receptor (Homo sapiens, UniProt P41145)", "6.3 µM"],
  ["N#CCN(CC(=O)N1CCCC(c2ccccc2)C1CN1CCCC1)c1ccc(Cl)c(Cl)c1 (racemic)", "Kappa-type opioid receptor (Homo sapiens, UniProt P41145)", "0.79 µM"],
  ["N#CCN(CC(=O)N1CCCC(c2ccccc2)C1CN1CCOCC1)c1ccc(Cl)c(Cl)c1 (racemic)", "Kappa-type opioid receptor (Homo sapiens, UniProt P41145)", "5 µM"]
]}

stdin: Fill in: EC50 of O=C(Cn1c(=O)sc2ccc(Cl)cc21)N1CCCC(c2ccccc2)C1CN1CCOCC1 (racemic) is ___
stdout: 7.9 µM

stdin: How about Cc1cc2ncc(=O)n(CC(=O)N3CCCC(c4ccccc4)C3CN3CCOCC3)c2cc1C (racemic) ?
stdout: 30 µM

stdin: How about O=C(Cn1c(=O)cnc2cc(Cl)c(Cl)cc21)N1CCCC(c2ccccc2)C1CN1CCOCC1 (racemic) ?
stdout: 15 µM

stdin: How about O=C(Cn1c(=O)oc2ccc(Cl)cc21)N1CCCC(c2ccccc2)C1CN1CCOCC1 (racemic) ?
stdout: 1.3 µM

* * *

# test_method_notes: Oral bioavailability in rat at 4 mg/kg, po
# Format: ADME, organism-based
# stated_conditions: in vivo
# maps each entry to its bioavailability
Only the number, expressed in %, is required.

As a guide, the following entries are already answered.
{"columns": ["molecule", "endpoint_unit", "bioavailability"],
 "data": [
  ["CN(CC(=O)N1CCCC(c2ccccc2)C1CN1CCCC1)c1ccc(Cl)c(Cl)c1 (racemic)", "%", 0],
  ["COCCN(CC(=O)N1CCCC(c2ccccc2)C1CN1CCCC1)c1ccc(Cl)c(Cl)c1 (stereo not given)", "%", 30],
  ["N#CCN(CC(=O)N1CCCC(c2ccccc2)C1CN1CCOCC1)c1ccc(Cl)c(Cl)c1 (racemic)", "%", 7]
]}

Now for a further molecule.
stdin: Fill in: bioavailability of N#CCN(CC(=O)N1CCCC(c2ccccc2)C1CN1CCCC1)c1ccc(Cl)c(Cl)c1 (racemic) is ___
stdout: 12

* * *

# test_method_notes: Clearance in rat at 2 mg/kg, iv and 4 mg/kg, po
# Format: ADME, organism-based
# stated_conditions: in vivo
value_kind: clearance

As a guide, the following entries are already answered.
{"columns": ["compound", "result"],
 "data": [
  ["CN(CC(=O)N1CCCC(c2ccccc2)C1CN1CCCC1)c1ccc(Cl)c(Cl)c1 (racemic)", "97 mL/min/kg"],
  ["O=C(Cn1c(=O)sc2ccc(Cl)cc21)N1CCCC(c2ccccc2)C1CN1CCOCC1 (racemic)", "130 mL/min/kg"],
  ["COCCN(CC(=O)N1CCCC(c2ccccc2)C1CN1CCCC1)c1ccc(Cl)c(Cl)c1 (stereo not given)", "120 mL/min/kg"],
  ["N#CCN(CC(=O)N1CCCC(c2ccccc2)C1CN1CCCC1)c1ccc(Cl)c(Cl)c1 (racemic)", "100 mL/min/kg"]
]}

Now for a further compound.
stdin: Fill in: clearance of N#CCN(CC(=O)N1CCCC(c2ccccc2)C1CN1CCOCC1)c1ccc(Cl)c(Cl)c1 (racemic) is ___
stdout: 60 mL/min/kg
